Where do these numbers come from? They come from patent EP4335840A1.

- protocol notes: Relaxivity measurements at 1.41 T in water and human plasma
- Assay type: physicochemical
- cond: human plasma, 37°C, normalized to Gd
parameter measured: r1 human plasma (L/mmol/s)
Field: numeric (L/mmol/s). Do not append units.

- CCOCCOCCOc1ccc(C[C@H]2CN(CC(=O)[O-])CCN(CC(=O)[O-])CCN(CC(=O)O)CCN2CC(=O)[O-])nc1.[Gd+3] [Example 6]: 5.9
- CCOCCOCCOCCOc1ccc(C[C@H]2CN(CC(=O)[O-])CCN(CC(=O)[O-])CCN(CC(=O)O)CCN2CC(=O)[O-])cc1.[Gd+3] [Example 5]: 5.7

Moving on to the next molecule.
Reported r1 human plasma ( CCOc1ccc(CC2CN(CC(=O)[O-])CCN(CC(=O)[O-])CCN(CC(=O)O)CCN2CC(=O)[O-])cc1.[Gd+3] (stereo not drawn) [Example 7] ) = 6.2
